From: patent EP4631940A1

System: AGS
PROTOCOL_DESCRIPTION: Cell proliferation experiment (CellTiter-Glo)
Assay type: cell-based
CONDITIONS: read-out: IC50(nM) AGS
Give IC50 for every item shown.
Answers are plain numbers, in nM.

Provide IC50 values for the following items, in order.
1. C#Cc1c(F)ccc2cc(O)cc(-c3ncc4c(N5CCCOCC5)nc(OC[C@]56CCCN5[C@@H](COC(=O)N5CCC7(CC5)CC(C(=O)N[C@H](C(=O)N5C[C@H](O)C[C@H]5C(=O)N[C@@H](C)c5ccc(-c8scnc8C)cc5)C(C)(C)C)C7)CC6)nc4c3F)c12
2. CCc1c(F)ccc2cc(O)cc(-c3ncc4c(N5CCC[C@@](C)(O)C5)nc(OCC5(CN6CCC(Oc7cnc(-c8cn([C@H](C(=O)N9C[C@H](O)C[C@H]9C(=O)N[C@@H](CO)c9ccc(-c%10scnc%10C)cc9)C(C)C)nn8)cn7)CC6)CC5)nc4c3F)c12
3. CCc1c(F)ccc2cc(O)cc(-c3ncc4c(N5CCC[C@@](C)(O)C5)nc(OCC5(CN6CCN(C7CN(c8cnc(-c9cn([C@H](C(=O)N%10C[C@H](O)C[C@H]%10C(=O)N[C@@H](C)c%10ccc(-c%11scnc%11C)cc%10)C(C)C)nn9)cn8)C7)CC6)CC5)nc4c3F)c12
4. CCc1c(F)ccc2cc(O)cc(-c3ncc4c(N5CCC[C@@](C)(O)C5)nc(OCC5(CN6CCC(Oc7cnc(-c8cn([C@H](C(=O)N9C[C@H](O)C[C@H]9C(=O)N[C@@H](CO)c9ccc(-c%10ccnn%10CC)cc9)C(C)C)nn8)cn7)CC6)CC5)nc4c3F)c12

Response line:
83
2.5
3
3.6

----------
System: AGS
PROTOCOL_DESCRIPTION: Cell proliferation experiment (CellTiter-Glo)
Assay type: cell-based
CONDITIONS: Homo sapiens, AGS, 96 h, read-out: IC50(nM) AGS
Give IC50 for every item shown.
Numbers only, in nM.

COMPOUND	ENDPOINT_UNIT	IC50
CCc1c(F)ccc2cc(O)cc(-c3ncc4c(N5CCC[C@@](C)(O)C5)nc(OCCN5CCC(CCOc6cc([C@H](C(=O)N7C[C@H](O)C[C@H]7C(=O)N[C@@H](C)c7ccc(-c8scnc8C)cc7)C(C)C)on6)CC5)nc4c3F)c12	nM	44
CCc1c(F)ccc2cc(O)cc(-c3ncc4c(N5CCC[C@@](C)(O)C5)nc(OCC5(CN6CCN(Cc7cn([C@H](C(=O)N8C[C@H](O)C[C@H]8C(=O)N[C@@H](C)c8ccc(-c9scnc9C)cc8)C(C)C)nn7)CC6)CC5)nc4c3F)c12	nM	25
C=C1CN2[C@H](COc3ccc(-c4cn([C@H](C(=O)N5C[C@H](O)C[C@H]5C(=O)N[C@@H](C)c5ccc(-c6scnc6C)cc5)C(C)C)nn4)cn3)CC[C@@]2(COc2nc(N3CCC[C@@](C)(O)C3)c3cnc(-c4cc(O)cc5ccc(F)c(CC)c45)c(F)c3n2)C1	nM	15
CCc1c(F)ccc2cc(O)cc(-c3ncc4c(N5CCC[C@@](C)(O)C5)nc(OCC5(CN6CCC7(CC6)CCN(c6cc([C@H](C(=O)N8C[C@H](O)C[C@H]8C(=O)N[C@@H](C)c8ccc(-c9scnc9C)cc8)C(C)C)on6)CC7)CC5)nc4c3F)c12	nM	23
CCc1c(F)ccc2cc(O)cc(-c3ncc4c(N5CCC[C@@](C)(O)C5)nc(OCC5(CN6CCC(Oc7cc(-c8cn([C@H](C(=O)N9C[C@H](O)C[C@H]9C(=O)N[C@@H](C)c9ccc(-c%10scnc%10C)cc9)C(C)C)nn8)ccn7)CC6)CC5)nc4c3F)c12	nM	10
C=C1CN2[C@H](COC(=O)N3CCC4(CC3)CC(CNC(=O)C[C@H](NC(=O)[C@@H]3C[C@@H](O)CN3C(=O)C(c3cc(C)no3)C(C)C)c3ccc(-c5scnc5C)cc3)C4)CC[C@@]2(COc2nc(N3CCC[C@@](C)(O)C3)c3cnc(-c4cc(O)cc5ccc(F)c(CC)c45)c(F)c3n2)C1 (single isomer, unassigned)	nM	84

Please look at the following compound next.
Prompt line: Dear colleague, I am looking for the recorded IC50 of the following compound: CCc1c(F)ccc2cc(O)cc(-c3ncc4c(N5CCC[C@@](C)(O)C5)nc(OCC5(CN6CCC(Nc7ccc(-c8cn([C@H](C(=O)N9C[C@H](O)C[C@H]9C(=O)N[C@@H](C)c9ccc(-c%10scnc%10C)cc9)C(C)C)nn8)cn7)CC6)CC5)nc4c3F)c12
Response line: 30

----------
Give DC50 for every item shown.
MEASURED_ON: KRAS G12D (Homo sapiens, UniProt P01116, G12D)
Sequence (P01116 1-188 isoform P01116-2 G12D): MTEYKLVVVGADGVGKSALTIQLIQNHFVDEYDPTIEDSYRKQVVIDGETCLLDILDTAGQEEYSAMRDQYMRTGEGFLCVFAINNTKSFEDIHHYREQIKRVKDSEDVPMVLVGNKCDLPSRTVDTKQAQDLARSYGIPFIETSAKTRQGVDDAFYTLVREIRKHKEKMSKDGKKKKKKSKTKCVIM
# include the unit after the value

GIVEN_SMILES	MEASURED_ON	DC50
CCc1c(F)ccc2cc(O)cc(-c3ncc4c(N5CCC[C@@](C)(O)C5)nc(OCC5(CN6CCN(c7cc([C@H](C(=O)N8C[C@H](O)C[C@H]8C(=O)N[C@@H](C)c8ccc(-c9scnc9C)cc8)C(C)C)on7)CC6)CC5)nc4c3F)c12	KRAS G12D (Homo sapiens, UniProt P01116, G12D)	5 nM

Please look at the following molecule next.
Prompt line: Dear colleague, I am looking for the recorded DC50 of the following molecule: CCc1c(F)ccc2cc(O)cc(-c3ncc4c(N5CCC[C@@](C)(O)C5)nc(OCC5(CN6CCN(C7CN(c8cc([C@H](C(=O)N9C[C@H](O)C[C@H]9C(=O)N[C@@H](C)c9ccc(-c%10scnc%10C)cc9)C(C)C)on8)C7)CC6)CC5)nc4c3F)c12
Response line: 9.6 nM

----------
Test system: AGS
PROTOCOL_DESCRIPTION: Cell proliferation experiment (CellTiter-Glo)
Type: cell-based
CONDITIONS: Homo sapiens, AGS, 96 h, read-out: IC50(nM) AGS
ENDPOINT_NAME: IC50

GIVEN_SMILES	ENDPOINT_NAME	TEST_RESULT
CCc1c(F)ccc2cc(O)cc(-c3ncc4c(N5CCC[C@@](C)(O)C5)nc(OCC5(CN6CCC(N(C)c7ccc(-c8cn([C@H](C(=O)N9C[C@H](O)C[C@H]9C(=O)N[C@@H](C)c9ccc(-c%10scnc%10C)cc9)C(C)C)nn8)cn7)CC6)CC5)nc4c3F)c12	IC50	13 nM

Provide IC50 values for the following items, in order.
1. CCc1c(F)ccc2cc(O)cc(-c3ncc4c(N5CCC[C@@](C)(O)C5)nc(OCC5(CN6CCN(CC78CC(c9cn([C@H](C(=O)N%10C[C@H](O)C[C@H]%10C(=O)N[C@@H](C)c%10ccc(-c%11scnc%11C)cc%10)C(C)C)nn9)(C7)C8)CC6)CC5)nc4c3F)c12
2. CCc1c(F)ccc2cc(O)cc(-c3ncc4c(N5CCC[C@@](C)(O)C5)nc(OCC5(CN6CCN(c7cc([C@H](C(=O)N8C[C@H](O)C[C@H]8C(=O)N[C@@H](C)c8ccc(-c9scnc9C)cc8)C(C)C)on7)CC6)CC5)nc4c3F)c12
3. CCc1c(F)ccc2cc(O)cc(-c3ncc4c(N5CCC[C@@](C)(O)C5)nc(OCC5(CN6CCC(c7ccc(-c8cn([C@H](C(=O)N9C[C@H](O)C[C@H]9C(=O)N[C@@H](C)c9ccc(-c%10scnc%10C)cc9)C(C)(C)C)nn8)cc7)CC6)CC5)nc4c3F)c12

Response line:
1: 15 nM; 2: 57 nM; 3: 37 nM

Provide IC50 values for the following items, in order.
1. CCc1c(F)ccc2cc(O)cc(-c3ncc4c(N5CCC[C@@](C)(O)C5)nc(OCC5(CN6CCC(OCc7ccc(-c8cn([C@H](C(=O)N9C[C@H](O)C[C@H]9C(=O)N[C@@H](C)c9ccc(-c%10scnc%10C)cc9)C(C)C)nn8)cc7)CC6)CC5)nc4c3F)c12
2. CCc1c(F)ccc2cc(O)cc(-c3ncc4c(N5CCC[C@@](C)(O)C5)nc(OCC5(CN6CCC(Oc7cnc(-c8cn([C@H](C(=O)N9C[C@H](O)C[C@H]9C(=O)N[C@@H](C)c9ccc(-c%10scnc%10C)cc9)C(C)C)nn8)cn7)CC6)CC5)nc4c3F)c12
3. CCc1c(F)ccc2cc(O)cc(-c3ncc4c(N5CCC[C@@](C)(O)C5)nc(OCC5(CN6CCC(Oc7ccc(-c8cn([C@H](C(=O)N9C[C@H](O)C[C@H]9C(=O)N[C@@H](C)c9ccc(-c%10scnc%10C)cc9)C(C)C)nn8)cn7)CC6)CC5)nc4c3F)c12

Response line:
6.8 nM
3 nM
5.2 nM

Prompt line: Dear colleague, I am looking for the recorded IC50 of the following compound: CCc1c(F)ccc2cc(O)cc(-c3ncc4c(N5CCC[C@@](C)(O)C5)nc(OCC5(CN6CCC(F)(COc7cc([C@H](C(=O)N8C[C@H](O)C[C@H]8C(=O)N[C@@H](C)c8ccc(-c9scnc9C)cc8)C(C)C)on7)CC6)CC5)nc4c3F)c12
Response line: 11 nM
